Provenance of the data: PubChem BioAssay AID493131

target: Protein FosB (Mus musculus); assay: activators of delta FosB homodimer, primary screen, biochemical, fluorescence polarization, TAMRA-CDK5 oligo, single point (AID 493131); conditions: purified delta FosB, at 25 µM, percent of positive-control signal above neutral wells;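 further: fluorescence polarization rise as delta FosB binds a TAMRA Cdk5 AP-1 oligo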
In all, about 340,000 compounds went through this assay and about 3,300 (0.97%) were called active.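 How the source made its calls: active means mean activation above about 17%, with every replicate also reaching it (limit read from the data, passing the limit was not always enough); inconclusive means only one of the two conditions met; inactive means the rest.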 The list comes from a sample in which actives are over-represented; it also holds close analogues and randomly drawn compounds.
Parameter call: string, one of yes (active), no (inactive)

Below, 2 compounds whose answers are already recorded.
COMPOUND	EXPERIMENTAL TARGET	CATEGORY
O=C(N/N=C/c1ccco1)c1ccc(NC(=O)C2CC2)cc1	Protein FosB (Mus musculus)	yes
CN(C)CCN(C(=O)CN1C(=O)c2ccccc2C1=O)c1nc2cc3c(cc2s1)OCCO3	Protein FosB (Mus musculus)	yes

stdin: What is the recorded call for this compound in the test? CC(C)C[C@H]1CN([C@@H](CC(C)C)CN2CCC[C@@H]2CN2C(=O)C(=O)NC[C@@H]2Cc2ccccc2)C(=O)C(=O)N1CCc1ccccc1
stdout: no

stdin: What is the recorded call for this compound in the test? COC(=O)CNC(=O)c1ccc(OC2CCN(C(=O)C3CC3)CC2)cc1
stdout: no

stdin: What is the recorded call for this compound in the test? Cc1ccc(NC(=O)Nc2ccccc2)c(Br)c1
stdout: no

stdin: What is the recorded call for this compound in the test? Clc1ccc(C2[C@H]3CN(CC4CCCCC4)[C@H](c4ccccc4)C34CC2(c2cccnc2)C4)cn1 (stereo partly specified)
stdout: no

====

biological target: Protein FosB (Mus musculus); test: activators of delta FosB homodimer, primary screen, biochemical, fluorescence polarization, TAMRA-CDK5 oligo, single point (AID 493131); conditions: purified delta FosB, at 25 µM, percent of positive-control signal above neutral wells;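 further: fluorescence polarization rise as delta FosB binds a TAMRA Cdk5 AP-1 oligo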
Hit rate of the full screen: of about 340,000 compounds, about 3,300 (0.97%) were called active.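 How the source made its calls: active means mean activation above about 17%, with every replicate also reaching it (limit read from the data, passing the limit was not always enough); inconclusive means only one of the two conditions met; inactive means the rest.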 Many of the other results were omitted from the sample, so actives are more common in it than they were.
Parameter call: string, one of yes = active, no = inactive

Nc1nc(NCCCN2CCOCC2)nc(Nc2ccccc2)c1[N+](=O)[O-] no
CCOc1ccc2[nH]c(C(=O)N/N=C/c3cccc(OC)c3OC)cc2c1 no
CC[C@@H](C)[C@@H]1CN([C@@H](C)CN2CCC[C@H]2CN2C(N)=NC[C@H]2C(C)C)C(=N)N1CCc1ccc(Cl)c(Cl)c1 yes

stdin: What is the recorded call for this compound in the test? C[C@@H](CN1CCC[C@H]1CN1C(N)=NC[C@@H]1Cc1ccccc1)N1C[C@@H](Cc2ccccc2)N(CCCC2CCCC2)C1=N
stdout: no

====

target: Protein FosB (Mus musculus); assay: activators of delta FosB homodimer, primary screen, biochemical, fluorescence polarization, TAMRA-CDK5 oligo, single point (AID 493131); settings: purified delta FosB, at 25 µM, percent of positive-control signal above neutral wells;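 further: fluorescence polarization rise as delta FosB binds a TAMRA Cdk5 AP-1 oligo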
The whole screen tested about 340,000 compounds, of which about 3,300 (0.97%) were called active.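 The calls were made as follows: active = mean activation above about 17%, with every replicate also reaching it (limit read from the data, passing the limit was not always enough); inconclusive = only one of the two conditions met; inactive = the rest.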 What follows is part of a selection rich in actives, with near analogues and random picks from the rest.
Parameter call: string, one of active, inactive

COc1ccc(OC)c(C(=O)c2ccc(Cl)cc2)c1 inactive
CCn1c(=O)c2cc(C(=O)Nc3cccc(C(C)=O)c3)sc2c2ccccc21 active
O=C(c1ccc(F)cc1)c1cn(Cc2ccc(F)cc2)c2cc3c(cc2c1=O)OCCO3 inactive
COc1cccc(CNC(=O)Cc2csc(Nc3nc(=S)[nH]c4ccccc34)n2)c1 inactive

Next:
stdin: What is the recorded call for this molecule in the test? O=C(Cc1csc(Nc2nc(=S)[nH]c3ccccc23)n1)NCCCN1CCN(c2cccc(Cl)c2)CC1
stdout: active

====

molecular target: Protein FosB (Mus musculus) (UniProt P13346); assay: activators of delta FosB homodimer, primary screen, biochemical, fluorescence polarization, TAMRA-CDK5 oligo, single point (AID 493131); conditions: purified delta FosB, at 25 µM, stronger effect = higher value, percent of positive-control signal above neutral wells;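 further: fluorescence polarization rise as delta FosB binds a TAMRA Cdk5 AP-1 oligo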
Sequence (P13346 whole entry, looked up): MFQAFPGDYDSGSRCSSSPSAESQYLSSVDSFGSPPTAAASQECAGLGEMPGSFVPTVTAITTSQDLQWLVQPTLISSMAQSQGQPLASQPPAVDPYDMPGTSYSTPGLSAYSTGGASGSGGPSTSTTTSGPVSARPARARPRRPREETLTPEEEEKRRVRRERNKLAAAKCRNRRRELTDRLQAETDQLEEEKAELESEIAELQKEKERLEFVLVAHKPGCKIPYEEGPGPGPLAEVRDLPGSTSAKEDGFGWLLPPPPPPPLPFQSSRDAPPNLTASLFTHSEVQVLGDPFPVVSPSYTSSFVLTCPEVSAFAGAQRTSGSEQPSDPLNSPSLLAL
The whole screen tested about 340,000 compounds, of which about 3,300 (0.97%) were called active. What follows is part of a selection rich in actives, with near analogues and random picks from the rest.
ENDPOINT LABEL: activation (%)
Answers are plain numbers, in %.

Example entries begin here.
COMPOUND	ENDPOINT LABEL	NUMERIC RESULT
Cc1ccc(NNC(=O)c2cccs2)cc1Cl	activation	-4.02
C=CCNC(=O)c1ccc2c3n(nc2c1)-c1ccc(C)cc1CO3	activation	-4.63
CCOC(=O)c1ccc(NC(=O)C2CC(=O)Nc3nc4ccccc4n32)cc1 (stereo unspecified)	activation	7.67
CC(C)c1cc(C(=O)O)on1	activation	5.07
COc1cccc(/C=C2/SC(=S)N(CC(=O)NC3C=CS(=O)(=O)C3)C2=O)c1 (stereo unspecified)	activation	35.9
Cc1ccc(-c2cc(C(=O)NCc3cn(C)nc3C)c3cc(Br)ccc3n2)cc1	activation	36.8
CC1CCCCC1NC(=O)/C(C#N)=C/C=C/c1ccccc1[N+](=O)[O-] (stereo unspecified)	activation	-2.37
Cc1nc(-c2ccc(Cl)cc2)sc1C1(C)CC(c2ccc(Br)cc2)=NO1 (stereo unspecified)	activation	-6.82
C=CCn1c(Oc2ccc(C(=O)OC)cc2)nc2c1c(=O)n(C)c(=O)n2C	activation	2.74
C=CCn1c(=O)n(C)c2c(=O)n(C)c(=O)n(C)c21	activation	-1.42

Alright, here's another compound for you.
stdin: Using the record for O=C(CN1CCN(S(=O)(=O)c2ccc(Cl)s2)CC1)N1CCCCC1 , report its activation.
stdout: -6.89

====

biological target: Protein FosB (Mus musculus); experiment: activators of delta FosB homodimer, primary screen, biochemical, fluorescence polarization, TAMRA-CDK5 oligo, single point (AID 493131); details: purified delta FosB, at 25 µM, stronger effect = higher value, percent of positive-control signal above neutral wells;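 further: fluorescence polarization rise as delta FosB binds a TAMRA Cdk5 AP-1 oligo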
In all, about 340,000 compounds went through this assay and about 3,300 (0.97%) were called active. This is one part of a sample in which actives are shown more often than they occur.
ENDPOINT LABEL: activation (%)
Give bare numbers, in %.

MOLECULE	EXPERIMENTAL TARGET	activation, %
Cc1ccc(NC(=O)CCC(=O)N2CCC(c3ccccc3)=N2)cc1S(=O)(=O)N1CCCCC1	Protein FosB (Mus musculus)	10.2
Cc1ccc2nc(-c3ccccn3)cc(C(=O)Nc3ccc4c(c3)OCO4)c2c1	Protein FosB (Mus musculus)	36.9
COc1ccc(S(=O)(=O)NCCOc2ccccc2)cc1F	Protein FosB (Mus musculus)	7.41
CN(CC(O)COc1ccc(S(=O)(=O)N2CCOCC2)cc1Cl)C1CCCCC1 (stereo unspecified)	Protein FosB (Mus musculus)	-9.15
CSc1ncccc1C(=O)Nc1ccc2c(c1)OCO2	Protein FosB (Mus musculus)	-5.35

Alright, here's another molecule for you.
stdin: Using the record for CS(=O)(=O)N1CCN=C1SCc1ccc(F)cc1 , report its activation.
stdout: 1.39

====

biological target: Protein FosB (Mus musculus) (UniProt P13346); assay: activators of delta FosB homodimer, primary screen, biochemical, fluorescence polarization, TAMRA-CDK5 oligo, single point (AID 493131); conditions: purified delta FosB, at 25 µM, stronger effect = higher value, percent of positive-control signal above neutral wells;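 further: fluorescence polarization rise as delta FosB binds a TAMRA Cdk5 AP-1 oligo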
Out of some 340,000 compounds screened, about 3,300 (0.97%) were called active. What follows is part of a selection rich in actives, with near analogues and random picks from the rest.
ENDPOINT LABEL: activation

Example entries begin here.
COMPOUND	activation
CCOC(=O)C1=C(COC(=O)[C@H](C)NS(=O)(=O)c2ccccc2F)NC(=O)NC1C (stereo partly specified)	-4.67% (inactive)
O=C(/C=C/c1ccc(F)cc1)NC(=S)NNC(=O)c1cccnc1	-8.6% (inactive)
O=C(COC(=O)c1cnccn1)Nc1cccc2ccccc12	-2.31% (inactive)
CCCCC(NS(=O)(=O)c1ccc(C)cc1)C(=O)Oc1ccc2c3c(c(=O)oc2c1)CCC3 (stereo unspecified)	-11.5% (inactive)

Give me activation for each of these compounds, listed below.
1. COc1ccc(Br)cc1C(=O)Nc1cccc(C)c1C
2. COc1ccc(C)cc1NC(=O)C(OC(=O)c1cccc(S(=O)(=O)N(C)c2ccccc2)c1)c1ccccc1 (stereo unspecified)
3. COc1cccc(NC(=O)COC(=O)CCOc2ccccc2OC)c1
4. CCOC(=O)CCC(NC(=O)c1ccc(CNc2nc3cc(C(F)(F)F)ccc3nc2C(=O)OCC)cc1)C(=O)OCC (stereo unspecified)
5. CCOc1ccc(OCC(=O)Nc2c3c(nn2C(C)(C)C)CS(=O)(=O)C3)cc1
6. O=C(NCc1ccc2c(c1)OCO2)c1c(-c2ccsc2)sc2ccccc12
7. CCCCOc1ccc(NC(=O)CSCC(=O)OCC)cc1
8. C=CCNC(=O)/C=C/c1ccc(C(C)C)cc1

stdout:
1. 6.11% (inactive)
2. -8.39% (inactive)
3. 2.67% (inactive)
4. -4.97% (inactive)
5. -1.81% (inactive)
6. -2.79% (inactive)
7. -6.39% (inactive)
8. -5.28% (inactive)

Give me activation for each of these compounds, listed below.
1. COc1ccc(Br)cc1C(=O)NC(=S)Nc1cc(-c2nc3ccccc3[nH]2)ccc1C
2. O=C(NCc1cccnc1)C(=O)Nc1nc(-c2ccccc2)cs1
3. COC(=O)c1ccc2ccccc2c1OC1OC(CO)C(O)C(O)C1NC(C)=O (stereo unspecified)
4. O=C(/C=C/c1ccc(F)cc1)NCCNC(=O)/C=C/c1ccc(F)cc1
5. O=C(Nc1nc(-c2ccc(-c3ccccc3)cc2)cs1)c1cnccn1
6. Cc1cc(Nc2cc(N3CCN(C)CC3)nc(Sc3ccc(NC(=O)C4CC4)cc3)n2)n[nH]1
7. Cc1ccc(C)c(NC(=O)C(OC(=O)c2ccc(C)s2)c2ccccc2)c1 (stereo unspecified)

stdout:
1. 30.2% (active)
2. -5.18% (inactive)
3. -0.206% (inactive)
4. 53.1% (active)
5. 21.9% (active)
6. 3.28% (inactive)
7. 23.6% (active)

Give me activation for each of these compounds, listed below.
1. COc1ccc(C(CNC(=O)c2cccc(S(=O)(=O)Nc3ccc(Br)cc3)c2)N(C)C)cc1 (stereo unspecified)
2. COc1cc(CNCc2ccc(OC)c3ccccc23)cc(OC)c1OC

stdout:
1. 14% (inactive)
2. -10.2% (inactive)
